# Lookup of reported pIC50 keyed by entry
# Tested on: IFNα Kit225 Reporter (Kit225 T cells with a stably-integrated STAT-dependent luciferase reporter, stimulated with IFNα)
# Method: Kit225 T Cell Assay, IFNα-stimulated STAT-dependent luciferase reporter
# Type: cell-based
# Study conditions: 200 U/mL human recombinant IFNα, 5-6 hours, luciferase expression
By convention, pIC50 is the negative base-10 log of a molar concentration.

Sample answers from the record:
1) CS(=O)(=O)N1CCN(c2cccc(Nc3cc(N[C@@H]4CCCC[C@H]4O)nn4c(C#N)cnc34)n2)CC1 [Example 63] | 6.26
2) CC1(C(=O)Nc2cccc(Nc3cc(N[C@@H]4CCCC[C@H]4O)nn4c(C#N)cnc34)n2)CC1 [Example 8] | 6.55

Lab note: next compound to report on.
Provide one value: measured pIC50 of CC(C)Oc1nc(Nc2cc(NC3CCOCC3)nn3c(C#N)cnc23)ccc1C(=O)N1CCCC1 [Example 43]
6.35

###

# Lookup of reported IC50 keyed by entry
# Test system: IFNα Kit225 Reporter (Kit225 T cells with a stably-integrated STAT-dependent luciferase reporter, stimulated with IFNα)
# Method: Kit225 T Cell Assay, IFNα-stimulated STAT-dependent luciferase reporter
# Type: cell-based
# Study conditions: 200 U/mL human recombinant IFNα, 5-6 hours, luciferase expression
The answer is to be given in µM; state only the numeric part.

Provide one value: measured IC50 of N#Cc1cnc2c(Nc3ccc4c(C(F)(F)F)cc(C(F)(F)F)nc4n3)cc(NC34CC5CC(O)(CC(O)(C5)C3)C4)nn12 [Example 19]
0.81

Provide one value: measured IC50 of N#Cc1cnc2c(Nc3ccc(C(=O)N4CCCC4C(F)(F)F)c(OCC(F)F)n3)cc(N[C@@H]3CCCC[C@H]3O)nn12 (stereo partly shown) [Example 33]
0.85

Provide one value: measured IC50 of CC(=O)NCc1ccc(-c2cccc(Nc3cc(N[C@@H]4CCCC[C@H]4O)nn4c(C#N)cnc34)n2)cc1 [Example 37]
0.55

Provide one value: measured IC50 of N#Cc1cnc2c(Nc3ccc(C(=O)N4CCCC4C(F)(F)F)c(OCC(F)F)n3)cc(NC3CCOCC3)nn12 (stereo not shown) [Example 49]
0.22

###

# Tested on: IFNα Kit225 Reporter (Kit225 T cells with a stably-integrated STAT-dependent luciferase reporter, stimulated with IFNα)
# Method: Kit225 T Cell Assay, IFNα-stimulated STAT-dependent luciferase reporter
# Format: cell-based
# Study conditions: 200 U/mL human recombinant IFNα, 5-6 hours, luciferase expression
# Method: Kit225 T cells with a stably-integrated STAT-dependent luciferase reporter were plated in RPMI (Gibco) containing 10% heat-inactivated FBS (Gibco) and 100 U/mL PenStrep (Gibco). The cells were then stimulated with either 20 ng/mL human recombinant IL-23 or 200 U/mL human recombinant IFNα (PBL InterferonSource) for 5-6 hours. Luciferase expression was measured using the STEADY-GLO® Luciferase Assay System (Promega) according to the manufacturer's instructions. […]
# Lookup of reported pIC50 keyed by entry
By convention, pIC50 is the negative base-10 log of a molar concentration.

1. CC(C)C(=O)N1CCN(c2cccc(Nc3cc(N[C@@H]4CCCC[C@H]4O)nn4c(C#N)cnc34)n2)CC1 | 6.43

Provide one value: measured pIC50 of C[C@@H]1COC[C@H](C)N1C(=O)c1ccc(Nc2cc(N[C@H]3CCCC[C@@H]3O)nn3c(C#N)cnc23)nc1OCC(F)F
6.12

Provide one value: measured pIC50 of N#Cc1cnc2c(Nc3cccc(N4C(=O)NC5(CCCCC5)C4=O)n3)cc(N[C@@H]3CCCC[C@H]3O)nn12
6.09

Provide one value: measured pIC50 of CC(=O)N1[C@H](C)CN(c2cccc(Nc3cc(NC45CC6CC(CC(O)(C6)C4)C5)nn4c(C#N)cnc34)n2)C[C@@H]1C
6.41

Provide one value: measured pIC50 of N#Cc1cnc2c(Nc3ccc(C(=O)N4CCCC4)c(N4CCCC4)n3)cc(N[C@H]3CCCC[C@@H]3O)nn12
6.31

Provide one value: measured pIC50 of N#Cc1cnc2c(Nc3ccc(C(=O)N4CCCC4)c(N4CC(F)C4)n3)cc(N[C@H]3CCCC[C@@H]3O)nn12
6.09

Provide one value: measured pIC50 of N#Cc1cnc2c(Nc3cccc(C(F)(F)F)n3)cc(NC34CC5CC(O)(CC(O)(C5)C3)C4)nn12
6.82

Provide one value: measured pIC50 of CN(CCc1ccccn1)C(=O)c1ccc(Nc2cc(N[C@@H]3CCCC[C@H]3O)nn3c(C#N)cnc23)nc1N(C)C
6.06

Provide one value: measured pIC50 of CCNc1nc(Nc2cc(N[C@H]3CCCC[C@@H]3O)nn3c(C#N)cnc23)ccc1C(=O)N1CCCC1
6.42

Provide one value: measured pIC50 of CC(=O)NCc1ccc(-c2cccc(Nc3cc(NC4CCOCC4)nn4c(C#N)cnc34)n2)cc1
6.12

Provide one value: measured pIC50 of N#Cc1cnc2c(Nc3cccc(N4CCOCC4)n3)cc(N[C@@H]3CCCC[C@H]3O)nn12
6.96

Provide one value: measured pIC50 of CC(C)(C)Oc1nc(Nc2cc(N[C@H]3CCCC[C@@H]3O)nn3c(C#N)cnc23)ccc1C(=O)N1CCCC1
5.89

Provide one value: measured pIC50 of N#Cc1cnc2c(Nc3cccc(N4CCN(CCO)CC4)n3)cc(N[C@@H]3CCCC[C@H]3O)nn12
6.21

Provide one value: measured pIC50 of N#Cc1cnc2c(Nc3ccc(C(=O)NCC4CCCO4)c(OCC(F)F)n3)cc(NC3CCOCC3)nn12 (stereo not drawn)
6.59

Provide one value: measured pIC50 of COc1ccc(Nc2cc(NC34CC5CC(O)(CC(O)(C5)C3)C4)nn3c(C#N)cnc23)nc1NC(=O)C(C)(C)C
6.12
